Biological target: hERG-encoded potassium channel (Homo sapiens)
Sequence (Q12809 whole entry): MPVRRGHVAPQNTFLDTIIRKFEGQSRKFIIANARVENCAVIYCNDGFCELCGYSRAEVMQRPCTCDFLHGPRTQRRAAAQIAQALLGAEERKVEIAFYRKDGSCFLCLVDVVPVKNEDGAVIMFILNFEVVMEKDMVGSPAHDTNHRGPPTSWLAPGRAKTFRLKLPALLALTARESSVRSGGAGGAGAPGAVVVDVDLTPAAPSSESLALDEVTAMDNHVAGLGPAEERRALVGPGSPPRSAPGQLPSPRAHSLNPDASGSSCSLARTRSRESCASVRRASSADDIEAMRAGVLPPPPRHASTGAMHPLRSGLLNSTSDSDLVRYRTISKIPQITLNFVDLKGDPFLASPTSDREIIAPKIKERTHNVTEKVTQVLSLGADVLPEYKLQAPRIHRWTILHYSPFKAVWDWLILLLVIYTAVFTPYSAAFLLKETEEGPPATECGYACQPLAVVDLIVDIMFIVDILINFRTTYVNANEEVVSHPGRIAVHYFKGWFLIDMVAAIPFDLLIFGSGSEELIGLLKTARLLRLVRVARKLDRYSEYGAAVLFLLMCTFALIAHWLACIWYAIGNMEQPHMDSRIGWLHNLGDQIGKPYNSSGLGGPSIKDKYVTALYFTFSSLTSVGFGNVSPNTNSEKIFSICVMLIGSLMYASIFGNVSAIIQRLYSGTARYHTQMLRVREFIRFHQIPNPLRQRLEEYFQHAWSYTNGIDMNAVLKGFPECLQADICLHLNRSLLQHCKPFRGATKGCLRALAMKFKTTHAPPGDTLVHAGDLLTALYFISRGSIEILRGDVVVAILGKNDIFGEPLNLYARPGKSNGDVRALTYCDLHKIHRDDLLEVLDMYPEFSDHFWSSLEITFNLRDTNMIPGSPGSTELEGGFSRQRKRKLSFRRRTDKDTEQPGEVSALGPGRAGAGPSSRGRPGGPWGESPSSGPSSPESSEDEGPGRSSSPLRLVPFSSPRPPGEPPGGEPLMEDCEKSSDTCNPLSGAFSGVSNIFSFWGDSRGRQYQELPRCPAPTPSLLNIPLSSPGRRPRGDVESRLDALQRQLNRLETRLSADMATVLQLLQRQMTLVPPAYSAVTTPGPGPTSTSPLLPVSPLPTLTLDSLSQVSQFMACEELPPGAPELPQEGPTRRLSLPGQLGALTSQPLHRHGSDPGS
Assay: Activity against hERG (planar-array-based voltage clamp, Kiss et al.)
Assay type: cell-based
endpoint label: pIC50
Hey, just a heads up that pIC50 is the negative log base 10 of the concentration in molar.

pIC50 for CN(C[C@@H](CCN1CC(N2CCOC[C@H]2CCO)C1)c1ccc(F)cc1)C(=O)c1cc(Br)cc(C(F)(F)F)c1 [Ex 5] ?
4.73

###

Molecular target: CYP3A4 (Homo sapiens, UniProt P08684)
Sequence (P08684 whole entry): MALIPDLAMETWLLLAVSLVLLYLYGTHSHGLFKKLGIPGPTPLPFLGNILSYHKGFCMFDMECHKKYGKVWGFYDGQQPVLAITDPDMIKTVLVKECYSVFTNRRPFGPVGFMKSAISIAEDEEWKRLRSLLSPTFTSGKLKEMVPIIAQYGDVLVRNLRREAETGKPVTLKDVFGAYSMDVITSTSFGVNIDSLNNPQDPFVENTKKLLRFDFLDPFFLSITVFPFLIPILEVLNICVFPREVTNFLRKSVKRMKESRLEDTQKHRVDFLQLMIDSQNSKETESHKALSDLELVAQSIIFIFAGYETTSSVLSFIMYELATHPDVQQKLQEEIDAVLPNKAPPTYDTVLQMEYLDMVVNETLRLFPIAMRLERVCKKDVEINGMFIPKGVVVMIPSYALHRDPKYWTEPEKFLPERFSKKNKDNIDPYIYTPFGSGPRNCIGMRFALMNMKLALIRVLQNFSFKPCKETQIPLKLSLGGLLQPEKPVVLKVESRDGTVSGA
endpoint label: pIC50
The quantity pIC50 is defined as the negative base-10 logarithm of the molar concentration.

For CN(C[C@@H](CCN1CC(N2CCOC[C@H]2CCO)C1)c1ccc(F)cc1)C(=O)c1cc(Br)cc(C(F)(F)F)c1 , what is its reported pIC50?
4.72

The origin of these recorded values is patent US20100069346A1.
